- assayedSystem: T1, human GIP receptor (human, UniProt P48546 22-466)
- T1 sequence (looked up): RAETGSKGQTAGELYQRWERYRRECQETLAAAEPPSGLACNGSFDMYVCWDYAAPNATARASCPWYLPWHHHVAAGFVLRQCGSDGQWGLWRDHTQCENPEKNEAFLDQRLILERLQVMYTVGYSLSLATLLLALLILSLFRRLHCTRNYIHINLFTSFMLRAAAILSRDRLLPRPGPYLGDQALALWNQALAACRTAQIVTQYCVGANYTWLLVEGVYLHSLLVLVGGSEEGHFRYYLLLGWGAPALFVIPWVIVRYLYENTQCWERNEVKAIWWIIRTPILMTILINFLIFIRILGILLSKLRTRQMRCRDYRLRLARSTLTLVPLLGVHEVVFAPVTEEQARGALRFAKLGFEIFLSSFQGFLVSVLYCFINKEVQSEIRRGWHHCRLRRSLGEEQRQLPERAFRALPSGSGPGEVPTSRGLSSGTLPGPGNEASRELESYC
- assayName: cell-based or functional assay
*1 amine or outer side, *2 acyl side, *3 side chain or, on linkers, in order; H or OH if unused. Where no end group is shown, it is not given here. Side-chain parts run from the residue outwards. The star is where a group is joined. C18 diacid = O=C(O)CCCCCCCCCCCCCCCCC(=O)*; γGlu = O=C(O)[C@H](CCC(=O)[*:2])N[*:1]; PEG = not defined here; AEEA = NCCOCCOCC(=O)O
The entries below are paired with their reported cAMP antagonism.
Response body: numeric value in nM, unit text excluded.

Study these solved cases before continuing.
TFISDYK([PEG-PEG-γGlu-C18 diacid])IAMDKIHQQDFVNWLLAQKPSSGAPPPS-NH2 (reading uncertain; also: 2xPEG: PEG unit not given here) [AT597]; 79.4
TFISDYK([AEEA-AEEA-γGlu-C18])IAMDKIHQQDFVNWLLAQKGKKNDW-OH [AT560]; 23.3

Read the next record carefully.
Inquiry: Can you look up the measured cAMP antagonism of TFISDYK([γGlu-γGlu-C18])IAMDKIHQQDFVNWLLAQKGKKNDW-OH [AT561] for me?
Reply text: 11.2

Origin of values: patent US20220298218A1
